Data origin, for the record: patent US7049289B1

- procedure summary: Incorporation into clots induced in a rat model (rat inferior vena cava model)
- Assay type: in vivo, rat (Male Wistar)
- test settings: Aged Clots
*1 amine or outer side, *2 acyl side, *3 side chain or, on linkers, in order; H or OH if unused. Glutaryl = O=C(CCCC(=O)[*:2])[*:1]
Could you please classify the records by Clot/heart using these ranges: class 1 (below 3), class 2 (3 to below 30), class 3 (30 or more)

>>> print(df.to_string())
                                  substance  category
0       Ac-NQEQVSPYTLLKG-NH2 [^123I-Cmpd 2]   class 2
1  Z-NQEQVSP(I-Y)TLLKG-Pn216 [^99mTc-Cmpd 24]   class 3
2  Pn44-CO(CH2)3CO-NQEQVSPYTLLKG-NH2 ({Pn44-Glutaryl}-NQEQVSPYTLLKG-NH2; also: 99mTc complex) [^99mTc-Cmpd 38]   class 1
3  Ac-NQEQVSPYTLLKG-Hynic (also: 99mTc complex) [^99mTc-Cmpd 4]   class 2
4  Ac-NAEAVSPYTLLKG-Pn216 (also: 99mTc complex) [^99mTc-Cmpd 14]   class 1
5  Ac-NQEQVSP-Nal(2)-TLLKG-Pn216 [^99mTc-Cmpd 20]   class 3
6  Ac-NQEQVSPYTLLKG-Pn216 (also: 99mTc complex) [^99mTc-Cmpd 5]   class 3
7  Ac-NQEQVSP(D-Y)TLL(D-K)βAla-Pn216 [^99mTc-Cmpd 33]   class 2

###

- procedure summary: Incorporation into clots induced in a rat model (rat inferior vena cava model)
- Type: in vivo, rat (Male Wistar)
- test settings: Fresh Clots: injected 5 min post-induction, sacrificed after 60 min
The star is where a group is joined. Adamantane1carbonyl = O=C(C12CC3CC(CC(C3)C1)C2)*; Fmoc = O=C(OCC1c2ccccc2-c2ccccc21)*; code Z = not defined here
Use rule met when the recorded Rel. Conc. (cpm/g of clot by dose/g animal) is no lower than 20; use rule not met when it is lower.

substance	category
Adamantoyl-NQEQVSPYTLLKG-Pn216 (Adamantane1carbonyl-NQEQVSPYTLLKG-Pn216; also: 99mTc complex) [^99mTc-Cmpd 11]	rule not met
Ac-LGPGQSKVIG-Pn44 (also: 99mTc complex) [^99mTc-Cmpd 45]	rule not met
Ac-NQEQVSPYTLLKG-Pn216 (also: 99mTc complex) [^99mTc-Cmpd 5]	rule not met
Fmoc-NQEQVSPYTLLKG-Pn216 (also: 99mTc complex) [^99mTc-Cmpd 9]	rule met
Z-NQEQVSPYAAAAG-Pn216 ({code Z}-NQEQVSPYAAAAG-Pn216; reading uncertain; also: 99mTc complex, printed as Z-NQEQVSPYAAAAG-Pn216) [^99mTc-Cmpd 42]	rule not met
Ac-NAEAVSPYTLLKG-Pn216 (also: 99mTc complex) [^99mTc-Cmpd 14]	rule not met

###

- target desc: fibrin (in vitro human plasma clot) (Homo sapiens, UniProt P02671+P02675+P02679)
- Construct: about 400 μl of human plasma containing the radiolabelled substrate; from tissue; host or cells: human plasma, clotted in vitro with added thrombin and calcium chloride
- Sequence (P02671 20-644 isoform P02671-2 limits assumed): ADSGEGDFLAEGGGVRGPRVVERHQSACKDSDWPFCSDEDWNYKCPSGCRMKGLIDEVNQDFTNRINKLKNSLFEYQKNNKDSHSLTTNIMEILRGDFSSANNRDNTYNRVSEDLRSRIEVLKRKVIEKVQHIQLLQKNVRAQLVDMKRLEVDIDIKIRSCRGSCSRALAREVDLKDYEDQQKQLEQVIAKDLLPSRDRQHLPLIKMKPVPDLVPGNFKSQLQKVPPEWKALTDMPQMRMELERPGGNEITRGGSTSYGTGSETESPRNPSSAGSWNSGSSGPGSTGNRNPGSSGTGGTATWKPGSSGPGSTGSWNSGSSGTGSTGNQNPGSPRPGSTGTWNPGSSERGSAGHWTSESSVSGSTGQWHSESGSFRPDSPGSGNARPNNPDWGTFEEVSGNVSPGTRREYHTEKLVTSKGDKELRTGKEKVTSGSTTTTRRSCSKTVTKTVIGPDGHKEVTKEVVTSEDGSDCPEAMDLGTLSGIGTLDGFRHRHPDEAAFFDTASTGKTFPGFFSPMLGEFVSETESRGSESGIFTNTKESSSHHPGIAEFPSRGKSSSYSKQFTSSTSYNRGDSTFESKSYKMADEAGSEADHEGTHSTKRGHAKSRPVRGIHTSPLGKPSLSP
- Sequence (P02675 45-491 limits assumed): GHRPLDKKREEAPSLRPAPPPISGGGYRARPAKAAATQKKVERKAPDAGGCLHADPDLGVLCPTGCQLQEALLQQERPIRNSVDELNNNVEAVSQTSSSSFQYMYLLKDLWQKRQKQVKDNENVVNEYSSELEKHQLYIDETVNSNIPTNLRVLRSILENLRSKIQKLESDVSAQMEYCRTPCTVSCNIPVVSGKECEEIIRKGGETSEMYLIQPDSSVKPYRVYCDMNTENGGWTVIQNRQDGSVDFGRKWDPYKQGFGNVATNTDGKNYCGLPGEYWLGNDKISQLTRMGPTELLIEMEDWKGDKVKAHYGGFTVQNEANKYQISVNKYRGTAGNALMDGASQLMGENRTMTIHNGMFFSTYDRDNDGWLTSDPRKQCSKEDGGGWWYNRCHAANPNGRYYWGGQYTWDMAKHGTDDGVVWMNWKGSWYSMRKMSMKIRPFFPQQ
- Sequence (P02679 27-437 isoform P02679-2 limits assumed): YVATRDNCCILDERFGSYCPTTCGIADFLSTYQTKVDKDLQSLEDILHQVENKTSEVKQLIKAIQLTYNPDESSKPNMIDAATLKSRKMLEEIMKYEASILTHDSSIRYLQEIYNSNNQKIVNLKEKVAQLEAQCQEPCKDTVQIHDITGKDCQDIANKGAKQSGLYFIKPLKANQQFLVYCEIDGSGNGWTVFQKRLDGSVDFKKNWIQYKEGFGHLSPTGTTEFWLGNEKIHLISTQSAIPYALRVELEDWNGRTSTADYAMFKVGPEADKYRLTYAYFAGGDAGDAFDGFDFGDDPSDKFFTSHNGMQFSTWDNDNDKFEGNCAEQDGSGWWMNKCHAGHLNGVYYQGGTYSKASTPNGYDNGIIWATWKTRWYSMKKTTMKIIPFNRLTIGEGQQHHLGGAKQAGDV
- procedure summary: Incorporation into human plasma clots in vitro
- Assay type: biochemical
- test settings: human plasma clot, with thrombin, 60 minutes, ca. 20° C.
Where no end group is shown, it is not given here. code Z = not defined here

substance	% retained (with thrombin) (%)
Z-NQEQVSPYAAAAG-Pn216 ({code Z}-NQEQVSPYAAAAG-Pn216; reading uncertain; also: 99mTc complex, printed as Z-NQEQVSPYAAAAG-Pn216) [^99mTc-Cmpd 42]	14.2
Z-NQEQVSP(I2-Y)TLLKG-Pn216 [^99mTc-Cmpd 25]	68.0
p-EAQIVG-Pn44 [^99mTc-Cmpd 46]	6.3
Ac-NQEQVSPYTLLKG-(PEG)3.4k-Pn44 (Ac-NQEQVSPYTLLKG-{PEG 3.4k-Pn44}; also: 99mTc complex) [^99mTc-Cmpd 40]	13.3
NQEQVSPYTLLKG-Pn216 (also: 99mTc complex) [^99mTc-Cmpd 6]	68.6
Ac-NQEQVSP(pBr-F)TLLKG-Pn216 [^99mTc-Cmpd 21]	60.6
Ac-NQEQVSP(I-Y)TLLKG-Pn216 [^99mTc-Cmpd 22]	59.0
Z-NQEQVSP(I-Y)TLLKG-Pn216 [^99mTc-Cmpd 24]	56.8

###

Readings of Rel. Conc. (cpm/g of clot by dose/g animal) for the listed substances
- procedure summary: Incorporation into clots induced in a rat model (rat inferior vena cava model)
- Assay type: in vivo, rat (Male Wistar)
- test settings: Fresh Clots: injected 5 min post-induction, sacrificed after 60 min
code Z = not defined here
measurement kind: Rel. Conc. (cpm/g of clot by dose/g animal)

substance	result number
Z-NQEQVSP(I-Y)TLLKG-Pn216 [^99mTc-Cmpd 24]	11.1
Z-NQEQVSPYTLLKG-Pn216 ({code Z}-NQEQVSPYTLLKG-Pn216; reading uncertain; also: 99mTc complex, printed as Z-NQEQVSPYTLLKG-Pn216) [^99mTc-Cmpd 8]	21.0
Ac-NQEQVSPLTLLKG-Pn216 (also: 99mTc complex) [^99mTc-Cmpd 19]	7.1
Ac-NQEQVSPYTLL(D-K)G-Pn216 [^99mTc-Cmpd 28]	9.7

###

- procedure summary: Incorporation into clots induced in a rat model (rat inferior vena cava model)
- Format: in vivo, rat (Male Wistar)
- test settings: Fresh Clots
The star is where a group is joined. Adamantane1carbonyl = O=C(C12CC3CC(CC(C3)C1)C2)*; code Z = not defined here
measurement kind: Clot/liver

substance	measurement kind	result number
Fmoc-NQEQVSP(I-Y)TLLKG-Pn216 [^99mTc-Cmpd 26]	Clot/liver	16
Z-NQEQVSPYTLLKG-Pn216 ({code Z}-NQEQVSPYTLLKG-Pn216; reading uncertain; also: 99mTc complex, printed as Z-NQEQVSPYTLLKG-Pn216) [^99mTc-Cmpd 8]	Clot/liver	21
Ac-NQEQVSP(I-Y)TLLKG-Pn216 [^99mTc-Cmpd 22]	Clot/liver	25
Adamantoyl-NQEQVSPYTLLKG-Pn216 (Adamantane1carbonyl-NQEQVSPYTLLKG-Pn216; also: 99mTc complex) [^99mTc-Cmpd 11]	Clot/liver	11
Ac-LGPGQSKVIG-Pn44 (also: 99mTc complex) [^99mTc-Cmpd 45]	Clot/liver	3
p-EAQIVG-Pn44 [^99mTc-Cmpd 46]	Clot/liver	1
Ac-NQEQVSP(I2-Y)TLLKG-Pn216 [^99mTc-Cmpd 23]	Clot/liver	21
Ac-NQEQVSP-Nal(2)-TLLKG-Pn216 [^99mTc-Cmpd 20]	Clot/liver	18
Ac-GQDPVKG-Pn216 (also: 99mTc complex) [^99mTc-Cmpd 48]	Clot/liver	3
Cyclo-[NQEQVSPYTLLKG] (cyclo(NQEQVSPYTLLKG); also: 123I label, place not given here) [^123I-Cmpd 44]	Clot/liver	2
